# protocol: Highest frequency of moderate liver toxicity observed during clinical trials, expressed as a percentage. [column '% BIOL' in source]
# assayConditions: human
Catalogue of Hepatotoxicity (moderate) values

| compound | Hepatotoxicity (moderate), % |
| --- | --- |
| C[C@]1(O)CC[C@H]2[C@@H]3CCC4=CC(=O)CC[C@@H]4[C@H]3CC[C@@]21C | 0 |
| CN1CCN(CC(=O)N2c3ccccc3C(=O)Nc3cccnc32)CC1 [PIRENZEPINE] | 0.7 |
| Cc1onc(-c2ccccc2)c1C(=O)N[C@@H]1C(=O)N2[C@@H]1SC(C)(C)[C@@H]2C(=O)O | 81 |
| Cc1c(O)c(=O)ccn1C | 59.5 |
| CC(=O)[C@@]1(O)CC[C@H]2[C@@H]3C=C(C)C4=CC(=O)CC[C@@H]4[C@H]3CC[C@@]21C | 0 |
| NC(=O)c1csc([C@@H]2O[C@H](CO)[C@@H](O)[C@H]2O)n1 | 62.5 |
| CC1(C)S[C@@H]2[C@H](N3C(=O)[C@@H](c4ccccc4)NC3(C)C)C(=O)N2[C@H]1C(=O)O | 0 |
| Cc1onc(-c2ccccc2Cl)c1C(=O)N[C@@H]1C(=O)N2[C@@H]1SC(C)(C)[C@@H]2C(=O)O | 25 |
| Cc1ccc(-c2nc3ccc(C)cn3c2CC(=O)N(C)C)cc1 | 0.4 |
| CCOC(OCC)C(=O)OCC(=O)[C@]1(O)Cc2c(O)c3c(c(O)c2[C@@H](O[C@H]2C[C@H](N)[C@H](O)[C@H](C)O2)C1)C(=O)c1c(OC)cccc1C3=O | 9.4 |
| CSc1nc2cc(Cl)c(Oc3cccc(Cl)c3Cl)cc2[nH]1 | 0 |
| O=c1[nH]c(=O)n([C@@H]2O[C@H](CO)[C@@H](O)[C@@H]2F)cc1I | 0 |
| CCOC(=O)[C@H](CCc1ccccc1)N[C@@H](C)C(=O)N1CCC[C@H]1C(=O)O | 2.8 |
| CN(C/C=C/C#CC(C)(C)C)Cc1cccc2ccccc12 | 36.7 |
| Nc1ccc(S(N)(=O)=O)cc1 [SULFANILAMIDE] | 0 |
| Cc1ccc(O)c2ncccc12 | 0 |
| CC(C)[C@H](N)C(=O)OCCOCn1cnc2c(=O)[nH]c(N)nc21 | 17.6 |
| Oc1ncnc2[nH]ncc12 | 3.1 |
